Hello, the source for this data is patent US10414774B2, in case you need it.

Molecular target: UniProtKB Q9UNU6
Assay: Human CYP8B1 Liver Microsome Assay
Conditions: Human CYP8B1 IC50, human liver microsomes; substrate 7a-hydroxy-4-cholesten-3-one, NADPH; RapidFire MS detection of 7α,12α-dihydroxy-4-cholesten-3-one
pIC50: −log10 of the molar value.
assay-readout: pIC50

Solved entries (count: 3):
[[record]]
compound = "CCc1nnc2n1CCN(C(=O)C1CCN(c3c(C#N)cnc4ccc(Cl)cc34)CC1)C2 [Example 106]"
subject_of_test = "UniProtKB Q9UNU6"
assay_readout = "pIC50"
reported_result = 8.09

[[record]]
compound = "Cc1nc2ccc(F)cc2c(N2CC[C@H](C(=O)N3CCn4c(nnc4C(F)(F)F)C3)[C@H](C)C2)c1C#N [Example 29]"
subject_of_test = "UniProtKB Q9UNU6"
assay_readout = "pIC50"
reported_result = 8.03

[[record]]
compound = "C[C@@H]1CN(c2c(C#N)cnc3c(F)c(Cl)ccc23)CC[C@@H]1C(=O)N1CCn2c(nnc2C2CC2)C1 [Example 66]"
subject_of_test = "UniProtKB Q9UNU6"
assay_readout = "pIC50"
reported_result = 9.29


I = CO[C@@H]1CN(c2c(C#N)cnc3ccc(Cl)cc23)CC[C@@H]1C(=O)N1CCn2c(nnc2C(F)(F)F)C1 [Example 72a]
II = C[C@@H]1CN(c2c(C#N)cnc3c(F)c(Cl)c(F)cc23)CC[C@@H]1C(=O)N1CCn2c(nnc2C(F)(F)F)C1 [Example 15]
III = C[C@@H]1CN(c2c(C#N)cnc3cc(Br)ccc23)CC[C@@H]1C(=O)N1CCn2c(nnc2C(F)(F)F)C1 [Example 4]
IV = COC(=O)c1ccc2nc(C(=O)OC)c(C#N)c(N3CC[C@H](C(=O)N4CCn5c(nnc5C(F)(F)F)C4)[C@H](C)C3)c2c1 [Example 60]
Put the entries in order of pIC50, starting with the largest number. Answer with the labels in sequence, matching the requested order. III, II, I, IV

* * *

Target: Human CYP8B1 (Homo sapiens)
Assay: Human CYP8B1 Liver Microsome Assay
Conditions: Human CYP8B1 IC50, human liver microsomes; substrate 7a-hydroxy-4-cholesten-3-one, NADPH; RapidFire MS detection of 7α,12α-dihydroxy-4-cholesten-3-one
assay-readout: IC50 (nM)

Solved entries (count: 2):
[[record]]
molecule = "CCc1ncc2n1CCN(C(=O)C1CCN(c3c(C#N)cnc4ccc(Cl)cc34)CC1)C2 [Example 114]"
units_label = "nM"
reported_result = 1220

[[record]]
molecule = "COc1ccc2c(N3CCC(C(=O)N4CCn5c(nnc5C(F)(F)F)C4)CC3)c(C#N)cnc2c1 [Example 44]"
units_label = "nM"
reported_result = 32


I = C[C@@H]1CN(c2c(C#N)cnc3c(F)c(Cl)ccc23)CC[C@@H]1C(=O)N1CCn2c(nnc2C(F)(F)F)C1 [Example 1]
II = Cc1nc2cc(F)c(F)cc2c(N2CCC(C(=O)N3CCn4c(nnc4C(F)(F)F)C3)CC2)c1C#N [Example 50]
Just curious, which one has the larger IC50 reading, I or II ? Use the label to indicate which entry you chose. II

* * *

Target: Human CYP8B1 (Homo sapiens, UniProt Q9UNU6)
Sequence (Q9UNU6 whole entry): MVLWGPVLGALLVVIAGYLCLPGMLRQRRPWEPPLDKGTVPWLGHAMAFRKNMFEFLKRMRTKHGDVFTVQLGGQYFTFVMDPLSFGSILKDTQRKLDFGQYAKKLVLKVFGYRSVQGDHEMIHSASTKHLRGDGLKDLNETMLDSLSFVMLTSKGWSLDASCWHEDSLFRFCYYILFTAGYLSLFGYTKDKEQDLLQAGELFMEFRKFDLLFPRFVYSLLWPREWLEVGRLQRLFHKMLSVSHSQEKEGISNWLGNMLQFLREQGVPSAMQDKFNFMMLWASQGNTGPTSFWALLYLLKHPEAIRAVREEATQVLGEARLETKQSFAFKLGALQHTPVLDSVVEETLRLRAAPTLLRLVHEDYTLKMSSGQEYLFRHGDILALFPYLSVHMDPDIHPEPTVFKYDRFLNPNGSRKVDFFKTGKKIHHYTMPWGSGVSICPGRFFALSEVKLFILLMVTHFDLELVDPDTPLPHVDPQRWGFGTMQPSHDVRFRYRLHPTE
Assay: Human CYP8B1 Liver Microsome Assay
Conditions: Human CYP8B1 IC50, human liver microsomes; substrate 7a-hydroxy-4-cholesten-3-one, NADPH; RapidFire MS detection of 7α,12α-dihydroxy-4-cholesten-3-one
assay-readout: IC50 (nM)

[[record]]
molecule = "CC(C)Oc1ccc2c(N3CC[C@H](C(=O)N4CCn5c(nnc5C(F)(F)F)C4)[C@H](C)C3)c(C#N)cnc2c1F"
subject_of_test = "Human CYP8B1 (Homo sapiens, UniProt Q9UNU6)"
assay_readout = "IC50"
units_label = "nM"
reported_result = 0.54


a = N#Cc1cnc2ccc(Cl)cc2c1N1CC[C@@H](C(=O)N2CCn3c(nnc3C(F)(F)F)C2)[C@@H](C2CC2)C1 [Example 76a]
b = CC1CN(c2c(C#N)cnc3c(C(F)F)cc(Cl)cc23)CCC1C(=O)N1CCn2c(nnc2C(F)(F)F)C1 (stereo not shown)
Just curious, which one has the larger IC50 reading, a or b ? Use the label to indicate which entry you chose. a
(a: 1320 nM, b: 4.8 nM)

P = CC1CN(c2c(C#N)c(C(F)F)nc3ccc(Cl)cc23)CCC1C(=O)N1CCn2c(nnc2C(F)(F)F)C1 (stereo not shown)
Q = Cc1nc2ccc(Cl)cc2c(N2CC[C@H](C(=O)N3CCn4c(nnc4C(F)(F)F)C3)[C@H](C)C2)c1C#N
R = COc1ccc2c(N3CC[C@H](C(=O)N4CCn5c(nnc5C(F)(F)F)C4)[C@H](C)C3)c(C#N)cnc2c1F
S = COc1ccc2c(N3C[C@@H](C)N(C(=O)N4CCn5c(nnc5C(F)(F)F)C4)[C@@H](C)C3)c(C#N)cnc2c1 [Example 83b]
Put the entries in order of IC50, starting with the largest number. Answer with the labels in sequence, matching the requested order. S, P, R, Q
(S: 987 nM, P: 69 nM, R: 0.96 nM, Q: 0.5 nM)
